From: patent US20180193454A1

List of Kd values.
Biological target: T1, human CD154 (human, UniProt P29965 113-261, limits assumed)
T1 construct: also called CD154 antigen; CD40L
T1 sequence (looked up): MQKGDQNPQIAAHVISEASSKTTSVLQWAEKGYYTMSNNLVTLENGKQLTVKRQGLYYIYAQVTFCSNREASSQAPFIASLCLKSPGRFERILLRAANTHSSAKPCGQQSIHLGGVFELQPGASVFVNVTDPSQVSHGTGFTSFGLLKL
Test: SPR, Biacore 3000, 25 C; antibody immobilized, CD154 antigen flowed over; average n = 6
MEASURED_PARAMETER: Kd (pM)

| BINDER | MEASURED_PARAMETER | ENDPOINT_RESULT |
| --- | --- | --- |
| variant 23, humanized anti-human CD154 antibody derived from IDEC-131 (antibody, V domains shown, also called combination #23) VH: EVQLQESGPGLVKPSETLSLTCTVSGDSITNGFWIWIRKPPGNKLEYMGYISYSGSTYYNPSLKSRISISRDTSKNQFSLKLSSVTAADTGVYYCAYRSYGRTPYYFDYWGQGTTLTVSS VL: DIVMTQSPSFLSASVGDRVTITCKGSSPLGHAVAWYQQKPGKSPKLLIYSASNRYTGVPDRFSGSGSGTDFTLTISSLQPEDFADYFCQQYDDYPYTFGGGTKLEIK | Kd | 42.1 |
| variant 27, humanized anti-human CD154 antibody derived from IDEC-131 (antibody, V domains shown) VH: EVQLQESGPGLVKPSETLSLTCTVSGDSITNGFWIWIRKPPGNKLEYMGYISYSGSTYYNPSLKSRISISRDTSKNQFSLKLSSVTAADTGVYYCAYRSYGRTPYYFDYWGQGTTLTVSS VL: DIVMTQSPSFLSASVGDRVTITCKASQHLGHAVAWYQQKPGKSPKLLIYSASNRYTGVPDRFSGSGSGTDFTLTISSLQPEDFADYFCQQYDDYPYTFGGGTKLEIK | Kd | 33.6 |
| variant 29, humanized anti-human CD154 antibody derived from IDEC-131 (antibody, V domains shown) VH: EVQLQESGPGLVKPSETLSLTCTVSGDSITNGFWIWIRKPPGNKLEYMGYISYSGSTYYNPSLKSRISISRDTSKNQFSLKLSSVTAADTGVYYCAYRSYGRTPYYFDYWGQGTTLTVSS VL: DIVMTQSPSFLSASVGDRVTITCKGNQPLGHAVAWYQQKPGKSPKLLIYSASNRYTGVPDRFSGSGSGTDFTLTISSLQPEDFADYFCQQYDDYPYTFGGGTKLEIK | Kd | 34.4 |
